target_desc: T1, recombinant human interleukin 12 (p40/p35 heterodimer) (human, UniProt P29460 23-328; P29459 23-219)
T1 chain 1: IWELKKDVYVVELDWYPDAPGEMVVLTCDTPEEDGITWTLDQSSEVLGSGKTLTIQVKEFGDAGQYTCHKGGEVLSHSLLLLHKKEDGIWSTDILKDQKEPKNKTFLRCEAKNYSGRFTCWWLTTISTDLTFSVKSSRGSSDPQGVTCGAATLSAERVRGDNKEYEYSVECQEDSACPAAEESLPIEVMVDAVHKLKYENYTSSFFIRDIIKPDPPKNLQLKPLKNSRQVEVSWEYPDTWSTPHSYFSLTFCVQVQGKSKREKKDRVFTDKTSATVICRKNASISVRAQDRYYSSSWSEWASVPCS
T1 chain 2: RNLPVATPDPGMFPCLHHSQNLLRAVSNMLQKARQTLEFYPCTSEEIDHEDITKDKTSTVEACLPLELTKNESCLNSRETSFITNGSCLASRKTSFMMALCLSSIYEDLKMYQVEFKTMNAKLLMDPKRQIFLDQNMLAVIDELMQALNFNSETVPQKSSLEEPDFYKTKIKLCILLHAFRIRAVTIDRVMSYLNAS
test_description: BIAcore
readout: log10(koff) (log10 of the value in s⁻¹)
Annotation: log10 of koff, s⁻¹ basis.

Here's what some known entries look like.
| binder | log10(koff) |
| --- | --- |
| FGSHDN [Y61 H95 F] | -2.29 |
| EGSHDN [Y61 H95 E] | -2.64 |
| HWSHDN [Y61 H96 W] | -2.71 |
| HGRHDN [Y61 H97 R] | -2.65 |
| HGDHDN [Y61 H97 D] | -2.69 |
| HDSHDN [Y61 H96 D] | -2.65 |

Task: Requested read-out: log10(koff). Entry: HGIHDN [Y61 H97 I]
Output: -2.68

Task: # repeat for HMSHDN [Y61 H96 M]
Output: -2.69

Task: Try HGFHDN [Y61 H97 F] next.
Output: -2.74

Task: Likewise for HGSHSN [Y61 H101 S] ?
Output: -3.35

Task: Queued: HGHHDN [Y61 H97 H]
Output: -2.72

Task: Next binder: HGPHDN [Y61 H97 P]
Output: -2.52

Task: Would you mind doing HGYHDN [Y61 H97 Y] as well?
Output: -2.56

Task: Can you check HGSFDN [Y61 H98 F] next?
Output: -3.16
